experiment: recombinant barcode read abundance after kanamycin selection (control-corrected) (log10(CPM+1)); higher = more efficient recombination; sequences stand for … in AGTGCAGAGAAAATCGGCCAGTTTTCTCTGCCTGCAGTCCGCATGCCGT…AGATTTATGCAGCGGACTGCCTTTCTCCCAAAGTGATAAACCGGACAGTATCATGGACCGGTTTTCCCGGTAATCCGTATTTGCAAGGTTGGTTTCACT; site = the 11-nt target;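 further: IS621 recombinase and bridge RNA in Escherichia coli cells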
1.0 means recorded recombinant barcode read abundance (log10) is 0.08 or above; 0.0 means it is below 0.08.

- ordered-residues: "ACGGTTGCTTGGGTTCTAACCTGTTGCCT (site ACGGGTGCTAG)"
  category-label: 1.0
- ordered-residues: "ATGATATCTTGGGTTCTAACCTGTTGCCT (site ATGATATCTAG)"
  category-label: 1.0
- ordered-residues: "TGATCCACTTGGGTTCTAACCTGTTGCCT (site GGATCCACTAG)"
  category-label: 0.0
- ordered-residues: "GGACGGCCTTGGGTTCTAACCTGTTGCGT (site CTACGGCCTAC)"
  category-label: 1.0
- ordered-residues: "TATGGGGCTTGGGTTCTAACCTGTTGCCT (site TATGCGGCTAG)"
  category-label: 0.0
- ordered-residues: "GTGTCACCTTGGGTTCTAACCTGTTGCCT (site GTGTCAGCTAG)"
  category-label: 0.0
- ordered-residues: "CTCGGGCCTTGGGTTCTAACCTGTTGCCT (site TTCGGGCCTAG)"
  category-label: 0.0
- ordered-residues: "GGGACTACTTGGGTTCTAACCTGTTGCGG (site CGGGCTACTCC)"
  category-label: 1.0
- ordered-residues: "TGCACCTCTTGGGTTCTAACCTGTTGCTA (site CAATAGACTAG)"
  category-label: 0.0
- ordered-residues: "CCTGGGACTTGGGTTCTAACCTGTTGCGA (site CCTGGGACTAC)"
  category-label: 0.0
- ordered-residues: "TAGTGTCCTTGGGTTCTAACCTGTTGCAT (site TAGTGTTCTAT)"
  category-label: 1.0
- ordered-residues: "TGTTGCACTTGGGTTCTAACCTGTTGCCT (site TGTTGGCCTAG)"
  category-label: 0.0
- ordered-residues: "CCTAAGCCTTGGGTTCTAACCTGTTGCAT (site GGACGCACTCC)"
  category-label: 1.0
- ordered-residues: "TTACGCACTTGGGTTCTAACCTGTTGCCT (site TAACCCACTAG)"
  category-label: 1.0
- ordered-residues: "CGGCGTCCTTGGGTTCTAACCTGTTGCCG (site CGGCGTCCTCG)"
  category-label: 1.0
- ordered-residues: "TAGAAGCCTTGGGTTCTAACCTGTTGCCG (site TAGAAGCCTCG)"
  category-label: 1.0
- ordered-residues: "GAGCGAGCTTGGGTTCTAACCTGTTGCAT (site GAGGGAGCTAT)"
  category-label: 0.0
- ordered-residues: "GTCTAGGCTTGGGTTCTAACCTGTTGCTG (site GTCTAGGCTCA)"
  category-label: 1.0
- ordered-residues: "CCAGTAACTTGGGTTCTAACCTGTTGCCT (site CCAGTAACTAG)"
  category-label: 1.0
- ordered-residues: "TAGGCTACTTGGGTTCTAACCTGTTGCAA (site TAGGCTACTGT)"
  category-label: 1.0
- ordered-residues: "CGAAATGCTTGGGTTCTAACCTGTTGCCT (site CGTAATGCTAG)"
  category-label: 1.0
